target-entity: T1, monkey Trop2 protein (Sino Biological, #90893-C08H) (monkey, UniProt A0A2K5UE71 27-274)
T1 construct: bought protein; also called monkey Trop2 protein antigen (His tag)
T1 sequence: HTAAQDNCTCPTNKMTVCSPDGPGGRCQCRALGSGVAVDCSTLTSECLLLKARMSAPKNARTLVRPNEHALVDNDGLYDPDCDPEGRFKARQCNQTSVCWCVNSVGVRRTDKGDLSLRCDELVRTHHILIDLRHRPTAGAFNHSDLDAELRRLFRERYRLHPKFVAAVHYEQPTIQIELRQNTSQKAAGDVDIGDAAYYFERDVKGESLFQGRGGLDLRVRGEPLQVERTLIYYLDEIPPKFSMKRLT
assay-text: BLI, Octet RED96, AHC sensor
Recorded koff values for a group of binders are listed next.
Record the value in s⁻¹, omitting the unit from your answer.

Reference set, count: 2
# binder, koff / s⁻¹
records = [
    ("PR001162 (antibody, human IgG1, kappa, V domains shown, fully human IgG1/kappa; also called antibody No. (23)) VH: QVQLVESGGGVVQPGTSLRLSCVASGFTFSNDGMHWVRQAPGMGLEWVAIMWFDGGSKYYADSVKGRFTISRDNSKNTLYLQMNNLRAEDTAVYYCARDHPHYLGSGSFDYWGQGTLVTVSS VL: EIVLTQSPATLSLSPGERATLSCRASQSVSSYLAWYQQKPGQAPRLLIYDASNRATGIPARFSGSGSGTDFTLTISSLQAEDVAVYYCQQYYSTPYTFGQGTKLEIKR", 0.000732),
    ("PR001138 (antibody, human IgG1, kappa, V domains shown, fully human IgG1/kappa; also called antibody No. (7)) VH: QVQLQESGPRLVKPSETLSLTCAVSGYSISSGYYWGWIRQSPGMGLEWIAYIYHDGSTYCNPSLKSRVTMSVDTSKNQFSLKLRSVTAADTAVYYCARDGAAAPFDYWGQGTLVTVSS VL: DIQMTQSPSTLSASVGDRVTITCRASQSISNWLAWYQQKPGKAPKVLIYKASSLESGVPSRFSGSGSGTEFTLTINSLQPDDFATYYCQQYDSYSITFGQGTRLEIKR", "3.98e-05"),
]

Kindly review the next binder as well.
Memo: PR001154 (antibody, human IgG1, kappa, V domains shown, fully human IgG1/kappa; also called antibody No. (17)) VH: QVQLVESGGGVVQPGRSLRLSCEASGFTFSHYGMHWVRQAPGKGLEWVAVIWYDGIKKYYIESVKGRFIISRDNSKNTLYLQMNRLRAEDTAVYYCARDGGFGELNYYGLDVWGQGTTVTVSS VL: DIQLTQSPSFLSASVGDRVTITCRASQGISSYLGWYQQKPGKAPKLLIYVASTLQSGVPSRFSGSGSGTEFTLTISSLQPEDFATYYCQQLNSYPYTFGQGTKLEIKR , reported koff: 0.000139
